From: PubChem BioAssay AID2060512

# Tested on: 186277-243-T-J2-PDC complex spheroid viability;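 note: spheroids exposed to drugs for 7 days; 100% = DMSO vehicle control viability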
# Assay summary: Anticancer human tumor 186277-243-T-J2-PDC patient-derived colon adenocarcinoma cell line growth inhibition [GQUAD]
# Applied conditions: second compound 3.16 µM; first compound 0.0316 µM; stronger effect = lower value
Reported viability, T/C by item:
Give a bare numeral; the unit % is implied.

O=C(c1cc(Cc2n[nH]c(=O)c3ccccc23)ccc1F)N1CCN(C(=O)C2CC2)CC1 + Cc1[nH]c2ccc(F)cc2c1-c1nc2c3cccnc3c3ncccc3c2[nH]1 :: 99
Cc1cccc(N(C)C(=O)C2C(O)CCN2c2nc(C)cc(C(F)(F)F)c2C#N)c1 (stereo not given) + Cc1[nH]c2ccc(F)cc2c1-c1nc2c3cccnc3c3ncccc3c2[nH]1 :: 127
CC(=O)O[C@H]1C(=O)[C@@]2(C)[C@H]([C@H](OC(=O)c3ccccc3)[C@]3(O)C[C@H](OC(=O)[C@H](O)[C@@H](NC(=O)c4ccccc4)c4ccccc4)C(C)=C1C3(C)C)[C@]1(OC(C)=O)CO[C@@H]1C[C@@H]2O + CN(C)c1ccc(Nc2c3ccc(NC(=O)CCN4CCCC4)cc3nc3cc(NC(=O)CCN4CCCC4)ccc23)cc1 :: 19.9
Nc1ccn(C2OC(CO)C(O)C2(F)F)c(=O)n1 (stereo not given) + Cc1[nH]c2ccc(F)cc2c1-c1nc2c3cccnc3c3ncccc3c2[nH]1 :: 23.4
CCCS(=O)(=O)Nc1ccc(F)c(C(=O)c2c[nH]c3ncc(-c4ccc(Cl)cc4)cc23)c1F + Cc1[nH]c2ccc(F)cc2c1-c1nc2c3cccnc3c3ncccc3c2[nH]1 :: 110
CC1COCCN1c1cc(C2(O)CC3CCC(C2)O3)c2cnn(-c3ccn[nH]3)c2n1 (stereo not given) + Cc1cnc(CNC(=O)c2c(=O)c3ccc(N4CCCN(C)CC4)nc3n3c2sc2ccccc23)cn1 :: 36.2
CC1COCCN1c1cc(-c2ccnn2C)c2ccnc(-c3ccn[nH]3)c2n1 (stereo not given) + Cc1cnc(CNC(=O)c2c(=O)c3ccc(N4CCCN(C)CC4)nc3n3c2sc2ccccc23)cn1 :: 32.1
CC(=O)O[C@H]1C(=O)[C@@]2(C)[C@H]([C@H](OC(=O)c3ccccc3)[C@]3(O)C[C@H](OC(=O)[C@H](O)[C@@H](NC(=O)c4ccccc4)c4ccccc4)C(C)=C1C3(C)C)[C@]1(OC(C)=O)CO[C@@H]1C[C@@H]2O + Cc1cnc(CNC(=O)c2c(=O)c3ccc(N4CCCN(C)CC4)nc3n3c2sc2ccccc23)cn1 :: 24.4
Cn1ncnc1[C@H]1c2n[nH]c(=O)c3cc(F)cc(c23)N[C@@H]1c1ccc(F)cc1 + CN(C)c1ccc(Nc2c3ccc(NC(=O)CCN4CCCC4)cc3nc3cc(NC(=O)CCN4CCCC4)ccc23)cc1 :: 94
COc1cccc2c1C(=O)c1c(O)c3c(c(O)c1C2=O)CC(O)(C(=O)CO)CC3OC1CC(N)C(O)C(C)O1 (stereo not given) + Cc1[nH]c2ccc(F)cc2c1-c1nc2c3cccnc3c3ncccc3c2[nH]1 :: 84.7

Here's the next entry for you.
Inquiry: Fill in the blank: the reported viability, T/C of COc1ncnc(C2CC2)c1-c1ncc2cnn(Cc3ccc(-c4nc(C(F)(F)F)cn4C(C)C)cc3)c2n1 + Cc1cnc(CNC(=O)c2c(=O)c3ccc(N4CCCN(C)CC4)nc3n3c2sc2ccccc23)cn1 is ____.
Reply text: 27.5
